- Experimental system: CD28 (human) (UniProt P10747)
- Experiment: flow cytometry, transfected cells
Friendly reminder: MFI ratio to WT (ΔWT) below 7 fold is condition met, at or above is condition not met.

Problem: # check: MFI ratio to WT (ΔWT) < 7 fold for ICOSL-Fc N52M/N57W/Q100P (Fc fusion) DTQEKEVRAMVGSDVELSCACPEGSRFDLNDVYVYWQTSESKTVVTYHIPQMSSLEWVDSRYRNRALMSPAGMLRGDFSLRLFNVTPQDEQKFHCLVLSPSLGFQEVLSVEVTLHVAANFSVPVVSAPHSPSQDELTFTCTSINGYPRPNVYWINKTDNSLLDQALQNDTVFLNMRGLYDVVSVLRIARTPSVNIGCCIENVLLQQNLTVGSQTGNDIGERDKITENPVSTGEKNAAT
Result: condition not met
